B1: library; a variant is named by its letters at X, in order (parent)
chain: MNIQIGELAKRTACPVVTIRFYEQEGLLPPPGRSRGNFRLYGEEHVERLQFIRHCRSLDMPLSDVRTLLSYRKRPDQDCGEVXMLLDEHIRQVESRIGALLELKHHLVELREACSGARPAQSCGILQXLSXCVCXTRGTTAHXSD

- Variants of: B1
- assay.notes: sfGFP reporter fluorescence (15 h) (µM FITC); higher = higher leak
- condition.notes: library round: Round 2; ligand: none
# sfGFP reporter fluorescence >= 0.06 gives t, anything below gives f

>>> label_class("NHDDA E109L")
"f"

Request: Dear colleague, could you confirm whether NIDDP K104T L107E has sfGFP reporter fluorescence at or above 0.06?
Response: f

Request: What do you get for NGDDP P61N D64K V108M ?
Response: t

Request: What do you get for NMDAP L107C ?
Response: t

Request: What do you get for NGDDP D87E S95A K104V R111A ?
Response: t

Request: What do you get for TGDDY E112I ?
Response: f

Request: What do you get for NGYPP V108I ?
Response: t

Request: What do you get for TGDDP V108L E112F ?
Response: f

Request: What do you get for TGDDL T139A ?
Response: f

Request: What do you get for NHDDA V108L ?
Response: f

Request: What do you get for NHCDL E109L ?
Response: t

Request: What do you get for NGDDP P61E L62I D64K ?
Response: t

Request: What do you get for NGAAS ?
Response: t

Request: What do you get for NGHAY ?
Response: f
